biological target: Torsin-1A (Homo sapiens) (UniProt O14656); assay: torsin A binders from cell lysate, primary screen, small-molecule microarray, wild-type, 635/667 nm (AID 1149); settings: COS7 hTOR1A-WT lysate, 635 nm fluorescence, higher = more signal
Sequence (O14656 whole entry, looked up): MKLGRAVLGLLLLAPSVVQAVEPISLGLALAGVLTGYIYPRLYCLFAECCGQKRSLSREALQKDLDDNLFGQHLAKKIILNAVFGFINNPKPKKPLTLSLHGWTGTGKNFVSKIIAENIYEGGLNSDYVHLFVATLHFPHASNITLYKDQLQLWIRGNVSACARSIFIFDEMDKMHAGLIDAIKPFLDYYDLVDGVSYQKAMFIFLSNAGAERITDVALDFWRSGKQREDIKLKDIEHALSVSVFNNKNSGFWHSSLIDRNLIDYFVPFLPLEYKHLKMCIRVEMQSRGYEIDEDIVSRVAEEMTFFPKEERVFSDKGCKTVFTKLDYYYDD
compounds and their reported composite z-score
Give the figure by itself; no unit, no explanation.

Answered cases to consult:
COC(=O)C(C(=O)OC)C1CCCC(=O)C1 (stereo not given) = 0.622
CCOC(=O)[C@H](Cc1ccccc1)NC(=O)CCC1CC(OC(=O)NCc2cccc3ccccc23)CC2(CCCC(COC(=O)NCc3ccc4c(c3)OCO4)O2)O1 (stereo not given in full) = 0.0755
CCCNC(=O)OC[C@H]1O[C@H](CCON=C2C[C@@H](O)[C@@H](O)[C@@H]3[C@@H]4C(=O)N(CC)C(=O)[C@@H]4CC[C@@H]23)C=C[C@@H]1Oc1ccc(OC)cc1 = 0.509
CCOC(=O)CCN1C(=O)[C@H]2[C@H]3[C@H](O)[C@H](O)CC(=NOCC=C(C)CCC=C(C)C)[C@@H]3CC[C@H]2C1=O = 0.957
CC(=O)OC[C@H]1O[C@@H](ON=C2[C@H]3CCn4c(=O)n(-c5ccccc5)c(=O)n4[C@H]3[C@H](O)[C@@H]3O[C@H]23)[C@H](OC(C)=O)[C@@H](OC(C)=O)[C@@H]1OC(C)=O = 0.0264
C[C@@H](c1ccccc1)N1C(=O)[C@H]2[C@H]3[C@H](O)[C@H](O)CC(=NNC(=O)OCc4ccccc4)[C@@H]3CC[C@H]2C1=O = 3.35
O=C1C2=CC[C@H]3C(=O)N(Cc4ccccc4)C(=O)[C@H]3[C@H]2[C@H](O)[C@@H]2O[C@H]12 = 0.367
CCOC(=O)[C@H](Cc1ccccc1)NC(=O)CCC1CC(OC(=O)NCc2ccc3c(c2)OCO3)CC2(CCCC(COC(=O)NCCOC)O2)O1 (stereo not given in full) = 0.351

Consider the compound CC(C)CON=C1C[C@@H](O)[C@@H](O)[C@@H]2[C@@H]3C(=O)N(Cc4ccccc4)C(=O)[C@@H]3CC[C@H]12 and give its measured composite z-score.
0.0783

Consider the compound O=C1[C@H]2CCn3c(=O)n(Cc4cc5c(cc4Cl)OCO5)c(=O)n3[C@H]2[C@H](O)[C@@H]2O[C@H]12 and give its measured composite z-score.
-0.22

Consider the compound CCOC(=O)NN=C1C[C@@H](O)[C@@H](O)[C@@H]2[C@@H]3C(=O)N(CC)C(=O)[C@@H]3CC[C@H]12 and give its measured composite z-score.
0.399

Consider the compound CC(C)(C)N1C(=O)[C@H]2[C@H]3[C@H](O)[C@H](O)CC(=NOC[C@@H](O)COCc4ccco4)[C@H]3CC[C@H]2C1=O and give its measured composite z-score.
0.506

Consider the compound CCOC(=O)[C@H](CC(C)C)NC(=O)CCC1CC(OC(=O)NCc2ccc3c(c2)OCO3)CC2(CCCC(COC(=O)NCCC(C)C)O2)O1 (stereo not given in full) and give its measured composite z-score.
-0.0916

Consider the compound COC(=O)CC=C[C@@H](C)[C@@H](C=NOC[C@@H](C)[C@H](OCc1ccccc1)C(C)C)OC and give its measured composite z-score.
0.155

Consider the compound CCOC(=O)CCN1C(=O)[C@H]2[C@H]3[C@H](O)[C@H](O)CC(=O)[C@@H]3CC[C@H]2C1=O and give its measured composite z-score.
0.205

Consider the compound CC(CCN1CCCc2nc(C)c(C)cc21)=NOC[C@@H](O)COCc1ccco1 and give its measured composite z-score.
4.39

Consider the compound O=C1CCCC=C1C(O)COCc1ccccc1 (stereo not given) and give its measured composite z-score.
-0.465

Consider the compound CCOC(=O)[C@H](Cc1ccccc1)NC(=O)CCC1CC(OC(=O)NCc2cccc3ccccc23)CC2(CCCC(COC(=O)NCC3CCCCC3)O2)O1 (stereo not given in full) and give its measured composite z-score.
0.156

Consider the compound CCc1cc2c(nc1CC)CCN(CCC(C)=NOCC[C@@H]1C=C[C@H](OC(C)=O)[C@@H](COC(C)=O)O1)C2 and give its measured composite z-score.
2.66

Consider the compound CC(C)=CCCC(C)=CCON=C1C[C@@H](O)[C@@H](O)[C@@H]2[C@@H]3C(=O)N(Cc4ccc5c(c4)OCO5)C(=O)[C@@H]3CC[C@H]12 and give its measured composite z-score.
0.46

Consider the compound C[C@H]1CC[C@H]2C(=O)OC(COc3ccc(C(C)(C)C)cc3)CN2[C@@H]1c1ccc(Br)cc1 (stereo not given in full) and give its measured composite z-score.
0.213

Consider the compound CC(C)CN1CCc2nc(-c3ccccc3)c3c(c2C1)CO[C@@H](C)C3 and give its measured composite z-score.
0.0937

Consider the compound COc1cccc([C@H]2Oc3ccc(OC)cc3C(=NO[C@@H](C)c3cc(-c4c(C)cc(C)cc4C)no3)[C@@H]2O)c1 and give its measured composite z-score.
-1.26

Consider the compound COC(=O)[C@H](C)NC(=O)CCC1CC(OC(=O)NCc2cccc3ccccc23)CC2(CCCC(COC(=O)NCCCN3CCCC3=O)O2)O1 (stereo not given in full) and give its measured composite z-score.
0.519

Consider the compound CC(C)=NO[C@H](C)c1cn([C@@H]2COC[C@H]2O)nn1 and give its measured composite z-score.
0.455

Consider the compound COc1ccc(O[C@H]2C=C[C@@H](c3ccccc3)O[C@@H]2CON=C(C)CCN2CCCc3nc(C)c(C)cc32)cc1 and give its measured composite z-score.
0.476

Consider the compound CC(=O)OC[C@H]1O[C@H](CC=NOC[C@@H](O)COCc2ccco2)C=C[C@@H]1OC(C)=O and give its measured composite z-score.
3.67

Consider the compound CCN1C(=O)[C@H]2[C@@H]3C(=CC[C@H]2C1=O)C(=O)[C@H]1O[C@H]1[C@H]3O and give its measured composite z-score.
0.734

Consider the compound COC(=O)CC=C[C@@H](C)[C@@H](C=NOC(C)CN1CCCCc2nc(C)c(C)cc21)OC (stereo not given in full) and give its measured composite z-score.
3.19

Consider the compound CC(C)CON=C1C[C@@H](O)[C@@H](O)[C@@H]2[C@@H]3C(=O)N(C(C)(C)C)C(=O)[C@@H]3CC[C@@H]12 and give its measured composite z-score.
3.07
